system: NCI-H838; test: relative viability (nuclei count vs DMSO), 5 days (fraction); higher = more cells survive; settings: first compound 0.0002 µM
Measure: relative viability
Lab note: record the figure alone, no unit after it.

Entry CC(=O)O[C@@]12CO[C@@H]1C[C@H](O)[C@@]1(C)C(=O)[C@H](O)C3=C(C)[C@@H](OC(=O)[C@H](O)[C@@H](NC(=O)OC(C)(C)C)c4ccccc4)C[C@@](O)([C@@H](OC(=O)c4ccccc4)[C@H]21)C3(C)C [Docetaxel] + CC1(C)CCC(c2ccc(Cl)cc2)=C(CN2CCN(c3ccc(C(=O)NS(=O)(=O)c4ccc(N[C@H](CCN5CCOCC5)CSc5ccccc5)c(S(=O)(=O)C(F)(F)F)c4)cc3)CC2)C1 [Navitoclax] (partner 0.5 µM) , tested on NCI-H838, has a reported relative viability of 1.15

---

tested on: SK-LU-1; test: relative viability (nuclei count vs DMSO), 5 days (fraction); higher = more cells survive; conditions: first compound 0.000632 µM
Measure: relative viability
Lab note: record the figure alone, no unit after it.

The examples below pair each entry with its known result.
{"Compound": "CC(=O)O[C@@]12CO[C@@H]1C[C@H](O)[C@@]1(C)C(=O)[C@H](O)C3=C(C)[C@@H](OC(=O)[C@H](O)[C@@H](NC(=O)OC(C)(C)C)c4ccccc4)C[C@@](O)([C@@H](OC(=O)c4ccccc4)[C@H]21)C3(C)C [Docetaxel] + CS(=O)(=O)N1CCN(Cc2cc3nc(-c4cccc5[nH]ncc45)nc(N4CCOCC4)c3s2)CC1 [Pictilisib] (partner 1 µM)", "Reported Result": 0.305}
{"Compound": "CC(=O)O[C@@]12CO[C@@H]1C[C@H](O)[C@@]1(C)C(=O)[C@H](O)C3=C(C)[C@@H](OC(=O)[C@H](O)[C@@H](NC(=O)OC(C)(C)C)c4ccccc4)C[C@@](O)([C@@H](OC(=O)c4ccccc4)[C@H]21)C3(C)C [Docetaxel] + Nc1nc2[nH]cc(CCc3ccc(C(=O)N[C@@H](CCC(=O)O)C(=O)O)cc3)c2c(=O)[nH]1 [Pemetrexed] (partner 0.2 µM)", "Reported Result": 0.725}

Query CC(=O)O[C@@]12CO[C@@H]1C[C@H](O)[C@@]1(C)C(=O)[C@H](O)C3=C(C)[C@@H](OC(=O)[C@H](O)[C@@H](NC(=O)OC(C)(C)C)c4ccccc4)C[C@@](O)([C@@H](OC(=O)c4ccccc4)[C@H]21)C3(C)C [Docetaxel] + Cc1nc(Nc2ncc(C(=O)Nc3c(C)cccc3Cl)s2)cc(N2CCN(CCO)CC2)n1 [Dasatinib] (partner 0.075 µM) yields relative viability of 0.156

Query CC(=O)O[C@@]12CO[C@@H]1C[C@H](O)[C@@]1(C)C(=O)[C@H](O)C3=C(C)[C@@H](OC(=O)[C@H](O)[C@@H](NC(=O)OC(C)(C)C)c4ccccc4)C[C@@](O)([C@@H](OC(=O)c4ccccc4)[C@H]21)C3(C)C [Docetaxel] + O=C(c1cc(Cc2n[nH]c(=O)c3ccccc23)ccc1F)N1CCN(C(=O)C2CC2)CC1 [Olaparib] (partner 8 µM) yields relative viability of 0.349

---

test system: BEN; experiment: relative viability (nuclei count vs DMSO), 5 days (fraction); higher = more cells survive; conditions: first compound 0.1265 µM
Quick list: relative viability per entry.
Lab note: record the figure alone, no unit after it.

{"Compound": "Cc1sc2c(c1C)C(c1ccc(Cl)cc1)=N[C@@H](CC(=O)OC(C)(C)C)c1nnc(C)n1-2 [JQ1] + C[C@@H](Oc1cc(-c2cnn(C3CCNCC3)c2)cnc1N)c1c(Cl)ccc(F)c1Cl [Crizotinib] (partner 1 µM)", "relative viability": 0.84}
{"Compound": "Cc1sc2c(c1C)C(c1ccc(Cl)cc1)=N[C@@H](CC(=O)OC(C)(C)C)c1nnc(C)n1-2 [JQ1] + Cc1cc(Nc2cc(N3CCN(C)CC3)nc(Sc3ccc(NC(=O)C4CC4)cc3)n2)n[nH]1 [Tozasertib] (partner 0.1 µM)", "relative viability": 0.535}

Query Cc1sc2c(c1C)C(c1ccc(Cl)cc1)=N[C@@H](CC(=O)OC(C)(C)C)c1nnc(C)n1-2 [JQ1] + NC(=O)Nc1cc(-c2cccc(F)c2)sc1C(=O)N[C@H]1CCCNC1 [AZD7762] (partner 0.2 µM) yields relative viability of 0.585

Query Cc1sc2c(c1C)C(c1ccc(Cl)cc1)=N[C@@H](CC(=O)OC(C)(C)C)c1nnc(C)n1-2 [JQ1] + CS(=O)(=O)CCNCc1ccc(-c2ccc3ncnc(Nc4ccc(OCc5cccc(F)c5)c(Cl)c4)c3c2)o1 [Lapatinib] (partner 2 µM) yields relative viability of 0.561

Query Cc1sc2c(c1C)C(c1ccc(Cl)cc1)=N[C@@H](CC(=O)OC(C)(C)C)c1nnc(C)n1-2 [JQ1] + CCNC(=O)c1noc(-c2cc(C(C)C)c(O)cc2O)c1-c1ccc(CN2CCOCC2)cc1 [Luminespib] (partner 0.01 µM) yields relative viability of 0.329

Query Cc1sc2c(c1C)C(c1ccc(Cl)cc1)=N[C@@H](CC(=O)OC(C)(C)C)c1nnc(C)n1-2 [JQ1] + Nc1nc2[nH]cc(CCc3ccc(C(=O)N[C@@H](CCC(=O)O)C(=O)O)cc3)c2c(=O)[nH]1 [Pemetrexed] (partner 0.2 µM) yields relative viability of 0.523

Query Cc1sc2c(c1C)C(c1ccc(Cl)cc1)=N[C@@H](CC(=O)OC(C)(C)C)c1nnc(C)n1-2 [JQ1] + COc1cc2c(Oc3ccc(NC(=O)C4(C(=O)Nc5ccc(F)cc5)CC4)cc3F)ccnc2cc1OCCCN1CCOCC1 [Foretinib] (partner 0.25 µM) yields relative viability of 0.529

Query Cc1sc2c(c1C)C(c1ccc(Cl)cc1)=N[C@@H](CC(=O)OC(C)(C)C)c1nnc(C)n1-2 [JQ1] + CC(=O)c1c(C)c2cnc(Nc3ccc(N4CCNCC4)cn3)nc2n(C2CCCC2)c1=O [Palbociclib] (partner 0.5 µM) yields relative viability of 0.443

Query Cc1sc2c(c1C)C(c1ccc(Cl)cc1)=N[C@@H](CC(=O)OC(C)(C)C)c1nnc(C)n1-2 [JQ1] + CC(C)C[C@H](NC(=O)[C@H](Cc1ccccc1)NC(=O)c1cnccn1)B(O)O [Bortezomib] (partner 0.002 µM) yields relative viability of 0.605
